- tested-target: Pyk2 kinase domain residues 419 to 691 (Homo sapiens)
- Sequence (Q14289 420-691): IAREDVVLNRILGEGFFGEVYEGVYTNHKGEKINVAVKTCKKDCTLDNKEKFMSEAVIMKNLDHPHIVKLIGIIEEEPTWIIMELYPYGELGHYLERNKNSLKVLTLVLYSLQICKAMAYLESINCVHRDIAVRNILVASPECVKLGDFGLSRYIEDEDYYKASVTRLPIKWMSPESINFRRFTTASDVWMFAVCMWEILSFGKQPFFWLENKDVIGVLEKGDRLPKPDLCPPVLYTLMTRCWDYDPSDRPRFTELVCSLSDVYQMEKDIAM
readout-name: pIC50
Units for pIC50: none; it is -log10 of a concentration expressed in mol/L.

The compound listed as Nc1ncnc2c1ncn2[C@@H]1O[C@H](COP(=O)(O)OP(=O)(O)OP(O)(O)=S)[C@@H](O)[C@H]1O has a reported pIC50 of 4.85

Data point: Nc1ncnc2c1ncn2[C@@H]1O[C@H](COP(=O)(O)OP(=O)(O)O)[C@@H](O)[C@H]1O ; pIC50 = 4.85

Every entry's value here was drawn from patent US20050170431A1.
